- EXPERIMENT_NOTES: Cytotoxicity against human TZM-bl cells assessed as reduction in cell viability incubated for 3 days by XTT assay
- Format: cell-based
- APPLIED_CONDITIONS: TZM-bl cells, time 3 day
MEASURED_ATTRIBUTE: CC50 at 72 h

Before answering, review these 5 worked examples.
q: Which CC50 at 72 h value belongs to `NC[C@@H](NC(=O)CNCc1ccc(Cl)cc1)c1ncc(CO)s1` ?
a: > 70 µM

q: Which CC50 at 72 h value belongs to `NC[C@@H](NC(=O)C(=O)NCc1ccc(Cl)c(F)c1)c1ncc(CO)s1` ?
a: > 77.6 µM

q: Which CC50 at 72 h value belongs to `NC[C@H](NC(=O)C(=O)NCc1ccc(Cl)c(F)c1)c1ncc(CO)s1` ?
a: > 77.6 µM

q: Which CC50 at 72 h value belongs to `O=C(NC1CCNCC1)c1ccc(-c2ccc(Cl)c(F)c2)[nH]1` ?
a: 9.7 µM

q: Which CC50 at 72 h value belongs to `NC[C@@H](NC(=O)c1ccc(OCC2CCCCC2)cc1)c1ncc(CO)s1` ?
a: 28.2 µM

Continuing:
q: Which CC50 at 72 h value belongs to `O=C(N[C@@H](CC1CCNCC1)c1nc(CO)cs1)c1ccc(-c2ccc(C(F)(F)F)cc2)[nH]1` ?
a: > 40 µM

q: Which CC50 at 72 h value belongs to `NC[C@@H](NC(=O)c1ccc(NCC2CCCCC2)cc1)c1ncc(CO)s1` ?
a: 56.5 µM
